test: Cytotoxicity in African green monkey Vero B cells assessed as reduction in cell viability by MTS assay; assay type: cell-based; settings: chlorocebus aethiops
Readout name: CC50 (µM)
The answer is to be given in µM; state only the numeric part.

Qu. // CC50 lookup, key: CCCCCOCc1c(Nc2cccc(O)c2)nc(N2CCOCC2)nc1C(=O)NCc1ccc(C(F)(F)F)cc1
Ans. 32.8

Qu. I am curious: what CC50 value has been reported for Oc1cccc(Nc2nc(N3CCOCC3)nc3[nH]cnc23)c1 ?
Ans. 122

Qu. What value of CC50 has been recorded for this entry: O=C(NCCOc1ccccc1)c1nc(N2CCOCC2)nc(Nc2cccc(O)c2)c1CO
Ans. 73.3

Qu. Look up CC50: NS(=O)(=O)c1ccc(Nc2nc(N3CCOCC3)nc3[nH]cnc23)cc1
Ans. 373
